- targetDesc: T1, TNFR1 (Homo sapiens, UniProt P19438)
- T1 chain: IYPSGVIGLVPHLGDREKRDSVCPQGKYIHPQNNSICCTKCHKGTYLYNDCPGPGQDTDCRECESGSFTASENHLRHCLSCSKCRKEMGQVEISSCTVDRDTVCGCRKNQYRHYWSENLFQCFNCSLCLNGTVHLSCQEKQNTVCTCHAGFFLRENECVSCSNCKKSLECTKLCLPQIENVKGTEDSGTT
- experimentNotes: yeast display SC50
For each of the binders below, state its apparent Kd (screen).
Quick note: unit goes after the number.

## Input Identify measured apparent Kd (screen) associated with V102Y (designed binder) SMEEEVEKAAKEYEKKKKEAIEKHLEKLKAKDKEAAERFLKELEEAAKEYAKDEAKTMSEEEAKRRAKKYKEKVLLSELSEEEQKEIKEAEEKLVRTILKYYEEAAK
## Output 2.73 nM

## Input # return recorded apparent Kd (screen) for entry K15T (designed binder) SMEEEVEKAAKEYETKKKEAIEKHLEKLKAKDKEAAERFLKELEEAAKEYAKDEAKTMSEEEAKRRAKKYKEKVLLSELSEEEQKEIKEAEEKLVRTILKYVEEAAK
## Output 0.653 nM

## Input Give a short answer stating reported apparent Kd (screen) for K73C (designed binder) SMEEEVEKAAKEYEKKKKEAIEKHLEKLKAKDKEAAERFLKELEEAAKEYAKDEAKTMSEEEAKRRAKKYKECVLLSELSEEEQKEIKEAEEKLVRTILKYVEEAAK .
## Output 24.4 nM

## Input Supply recorded apparent Kd (screen) for E45Y (designed binder) SMEEEVEKAAKEYEKKKKEAIEKHLEKLKAKDKEAAERFLKELEYAAKEYAKDEAKTMSEEEAKRRAKKYKEKVLLSELSEEEQKEIKEAEEKLVRTILKYVEEAAK here.
## Output 2.73 nM

Hey, just so you know, these numbers are from paper PMC12416549.
